- Target Of Assay: Kv1.3 (Homo sapiens, UniProt P22001)
- Construct: expressed in transfected cells; host or cells: CHO (Kv1.3/CHO)
- Sequence (P22001 whole entry): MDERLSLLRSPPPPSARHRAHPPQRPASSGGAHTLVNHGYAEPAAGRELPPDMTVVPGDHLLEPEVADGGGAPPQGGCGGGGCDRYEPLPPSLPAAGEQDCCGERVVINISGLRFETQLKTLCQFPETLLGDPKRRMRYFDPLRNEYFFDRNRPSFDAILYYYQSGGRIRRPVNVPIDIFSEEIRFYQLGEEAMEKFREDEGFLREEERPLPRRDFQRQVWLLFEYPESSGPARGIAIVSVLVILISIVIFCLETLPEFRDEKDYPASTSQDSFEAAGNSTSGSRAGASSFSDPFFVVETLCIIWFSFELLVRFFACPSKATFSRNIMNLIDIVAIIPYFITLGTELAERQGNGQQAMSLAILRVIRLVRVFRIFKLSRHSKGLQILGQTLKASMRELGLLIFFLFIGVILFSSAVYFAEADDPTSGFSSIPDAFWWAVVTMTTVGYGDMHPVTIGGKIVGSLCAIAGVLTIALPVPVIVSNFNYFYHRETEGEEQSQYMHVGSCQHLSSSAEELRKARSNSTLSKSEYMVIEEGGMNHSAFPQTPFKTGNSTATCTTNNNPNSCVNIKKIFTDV
- Assay Name: Electrophysiology: planar patch-clamp of Kv1.3 currents, IC50 from steady state current amplitude
- Assay type: cell-based
- Condition Summary: Kv1.3 electrophysiology, results according to Method D1, read-out: IC50 (Kv1.3 ephys steady state)
Measurement Name: IC50

Answered cases to consult:
Molecule | Target Of Assay | IC50
O=C(C1CC1c1ccc(F)cc1)N(Cc1cnc[nH]1)C(c1ccc(OC(F)F)cc1)C1CC1 (stereo not drawn) | Kv1.3 (Homo sapiens, UniProt P22001) | 200 to 1000 nM
C[C@@H](CC(=O)N(Cc1ccccn1)C(c1ccc(Cl)cc1)C1CC1)c1ccc(F)cc1 (single isomer, unassigned) | Kv1.3 (Homo sapiens, UniProt P22001) | < 50 nM
CCS(=O)(=O)c1cccc(C(C2CC2)N(Cc2ccc(F)cn2)C(=O)C2CC2c2ccc(F)cc2)c1 (stereo not drawn) | Kv1.3 (Homo sapiens, UniProt P22001) | 50 to 200 nM
CN1CCC(C(c2ccc(F)cc2F)N(Cc2ccc(F)cn2)C(=O)C2CC2c2ccc(F)cc2)CC1 (stereo not drawn) | Kv1.3 (Homo sapiens, UniProt P22001) | 200 to 1000 nM
CCS(=O)(=O)c1ccc(C(C2CC2)N(Cc2ccc(F)cn2)C(=O)C2CC2c2ccc(F)cc2)cc1 (stereo not drawn) [Example 233] | Kv1.3 (Homo sapiens, UniProt P22001) | 50 to 200 nM
CC(C)(c1ccccc1)N(Cc1ccccn1)C(=O)CS(=O)(=O)c1ccc(F)cc1 | Kv1.3 (Homo sapiens, UniProt P22001) | 200 to 1000 nM
CC(C(=O)N(Cc1ccccn1)C(c1ccc(Cl)cc1)C1CC1)S(=O)(=O)c1ccc(F)cc1 (single isomer, unassigned) [Example 296] | Kv1.3 (Homo sapiens, UniProt P22001) | < 50 nM
O=C(C1CC1c1ccc(F)cc1)N(Cc1cccnn1)C(c1ccc(F)cc1)C1CCOC1 (stereo not drawn) [Example 173] | Kv1.3 (Homo sapiens, UniProt P22001) | 50 to 200 nM

Okay, here is my list. What is IC50 for each of these?
1. O=C([C@@H]1C[C@H]1c1ccc(F)cc1)N(Cc1cccnn1)[C@H](c1ccc(OC(F)F)cc1)C1CC1
2. CN1CC(C(c2ccc(OC(F)(F)F)cc2)N(Cc2cncc(F)c2)C(=O)C2CC2c2ccc(F)cc2)C1 (stereo not drawn) [Example 163]
3. O=C(CS(=O)(=O)c1cccc(C(F)(F)F)c1)N(Cc1ccccn1)C(c1ccc(Cl)cc1)C1CC1 (stereo not drawn) [Example 293]
4. CN1CC(C(c2ccc(OC(F)F)cc2)N(Cc2ncccc2F)C(=O)C2CC2c2ccc(F)cc2)C1 (stereo not drawn) [Example 150]
5. CC(C(=O)N(Cc1ccccn1)C(c1ccc(Cl)cc1)C1CC1)S(=O)(=O)c1ccc(F)cc1 (single isomer, unassigned) [Example 297]
6. CCC(c1ccc(S(=O)(=O)CC)cc1)N(Cc1ccc(F)cn1)C(=O)C1CC1c1ccc(F)cc1 (stereo not drawn) [Example 117]

**Result**
["50 to 200 nM", "200 to 1000 nM", "50 to 200 nM", "200 to 1000 nM", "200 to 1000 nM", "50 to 200 nM"]

**Query** Lookup: IC50 / Kv1.3 (Homo sapiens, UniProt P22001) / O=C(CC1(c2ccc(F)cc2)CC1)N(Cc1cccnn1)[C@@H](c1ccc(OC(F)F)cc1)C1CC1
**Result** < 50 nM
